B1: glmS ribozyme (parent)
chain: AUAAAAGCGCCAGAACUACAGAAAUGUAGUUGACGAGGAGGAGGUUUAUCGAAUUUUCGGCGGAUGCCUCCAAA

variants of: B1; test: self-cleavage kobs at 640 uM GlcN6P; higher = faster cleavage; RNA array; conditions: with glucosamine-6-phosphate
Fewer inactive variants are shown than the library holds.
Decide using self-cleavage kobs at 640 uM GlcN6P: a value greater than or equal to 0.0003 s⁻¹ is True, a smaller one is False.

The following variants have reported results that may help.
# sequence-data, category
measured = [
    ("AUAAAAGCGCCAGUACUACAGAAAUGUAGAUGACGAGGAGGAGGUUUAUCGAAUUUUCGGCGGAUGCCUCCAAA [A14U U30A]", "True"),
    ("AUAAAAGCGCCAGCACUACAGAAAUGUAGUUGACGAGGAGGAGGUUUAUCGAACUUACGACGGAUGCCUUCAAA [A14C U54C U57A G60A C70U]", "False"),
    ("AUAAAAGCGCCAGAACUACAGAAAUGUAGUUGACGAGGAGGAGGUUUAUCGAAUUUGCGGCGGAAGCCUCCAAA [U57G U65A]", "False"),
    ("AUAAAAGCGCCAGAACUACAGAAAUGUAGUUGGCGAGGAGUAGGUUUAUCGAAUUUUCGGCGGAUGCCUCCAAA [A33G G41U]", "False"),
    ("AUAAAAGCGCCAGAACUACAGAAAUGUAGUUUACGAGGAGGAGGUUUAUCUAAUUUUCGGCGGAUGCCUCCAAA [G32U G51U]", "False"),
    ("AUAAAAGCGCCAGAACUACAGAAAUGUAGUUGACGAGGAGGAGGUUAACCGAAUUUUCGGCGGAUGCCUCCAAA [U47A U49C]", "False"),
    ("AUAAAAGCGCCAGAAUUACAGAAAUGUAGUUGACGAGGAGGAGGUUUAUCGAAUUUUCGGCGGAUCCCUCCAAA [C16U G66C]", "False"),
    ("AUAAAAGCGCCAGAACUACAGAAAUGUAGUUGACGAGGAUGAGGUUUAUCGGAUUUUCGGCGGAUGCCUCCAAA [G40U A52G]", "False"),
    ("AUAAAAGAGCCAGAACUACAGAAAUGUAGUUGACGAGGAGUAGGUUUAUCGAAUUUUCGGCGGAUGCCUCCAAA [C8A G41U]", "False"),
    ("AUAAAAGCGCCAGAACUACAGAAAUGUAGUUGACGAGGAGGGGGUUUAUCGAAUUUUCGGCGGGUGCCUCGAAA [A42G A64G C71G]", "True"),
]

Continue with the variant presented below.
Prompt: Decide: self-cleavage kobs at 640 uM GlcN6P of AUAAAAGCGCCAGAACUACAGAAAUGUAGUUGACGAGGAGGAGUUUUAUCGAAUUGUCGGCGGAUGCCUCCAAA [G44U U56G] >= 0.0003 s⁻¹?
Completion: False
